Readings of FACS Binding Geomean for the listed binders
Target: T1, human ASGR-1 mutant construct H203 (human, UniProt P07306 1-291)
T1 construct: Arg/Glu scanning: non-arginine residues were changed to arginine; Transiently expressed on CHO-S cells
T1 sequence: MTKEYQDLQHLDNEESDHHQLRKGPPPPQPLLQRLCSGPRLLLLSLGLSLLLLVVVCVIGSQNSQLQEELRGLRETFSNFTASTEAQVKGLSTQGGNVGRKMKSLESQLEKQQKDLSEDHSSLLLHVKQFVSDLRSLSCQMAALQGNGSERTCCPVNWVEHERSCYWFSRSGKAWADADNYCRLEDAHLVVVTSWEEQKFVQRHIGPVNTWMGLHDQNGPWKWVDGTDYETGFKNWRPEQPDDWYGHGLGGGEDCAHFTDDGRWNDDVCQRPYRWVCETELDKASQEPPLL
Test: FACS, transfected CHO-S cells, mAb 5 ug/ml
Lab note: write the figure by itself, no unit.

Q: GET /values?readout=FACS Binding Geomean&item= 202A3 (antibody, V domains shown, mAb) VH: QVQLEQSGAEVKKPGASVKVSCKASGYTFTSYDINWVRQATGQGLEWLGWMNPKRGNTGYAQKFQGRVTMTRNTSISTAHMELSSLRSEDTAVYYCARGRYSREDYYYYYDMDVWGQGTTVTVSS VL: DIQMSQSPSSLSASVGDRVTITCRASQGIRNDLGWYQQKPGKAPKRLICAASRLQSGVPSRFSGSGSGTEFTLTISSLQPEDFAIYYCLQHHDYPFTFGPGTKVDIK
Result: 12500

Q: GET /values?readout=FACS Binding Geomean&item= 50G9 (antibody, V domains shown, mAb) VH: QVQLVESGGGVVQPGRSLRLSCAASGFIFSSYGMHWVRQAPGKGLEWVAVISQDGIIRYYADSVKGRFTISRDNSKNTLYLQMNSLRAEDTAVYYCARDVKQWLVRTYGMDVWGQGTTVTVSS VL: SYELTQPPSVSVSPGQTASITCSGDKLGDKYACWYQQKPGQSPVLVIYQDSKRPSGIPERFSGSNSGNTATLTISGTQARDEAEYYCQARNSRRGVFGGGTRLTVL
Result: 1510

Q: GET /values?readout=FACS Binding Geomean&item= 22G5 (antibody, V domains shown, mAb) VH: EVQLLESGGGLVQPGGSLRLSCAASGFTFSSYAMNWVRQAPGMGLEWVSVISRSGGYTYYADSVKGRFTISRDNSKNTLYLQMNSLRAEDTAVYYCASRLAVAGSEAFDIWGQGTLVTVSS VL: DIQMTQSPSSLSASVGDRVTITCRASQNISSYLNWYQQKQGKAPKLLIYAASSLQNGVPSRFSGRGSGTDFTLTISSLQPEDFATYYCQQSYRTPLFTFGPGTKVDFK
Result: 15100

Others:
Q: GET /values?readout=FACS Binding Geomean&item= 65C12 (antibody, V domains shown, mAb) VH: EVQLVESGGGLVKPGGSLRLSCAASGFTFRSFSLNWVRQAPGKGLEWVSSISSSSSYIYYADSVKGRFTISRDNAKNSLYLQMNSLRAEDTAVYYCARDAYSHYWGQGTLVTVSS VL: EIVMTQSPATLSVFPGEGATLSCRASQSVSINLAWYQQKPGQAPRLLIYGASTRATGIPARFNASGSGTEFTLSISSLQSENFAVYYCQQYNTWPLTFGGGTKVEIK
Result: 25800

Q: GET /values?readout=FACS Binding Geomean&item= 199A7 (antibody, V domains shown, mAb) VH: QVQLVESGGGVVQPGRSLRLSCAASGFTFSNYGMHWVRQAPGKGLEWVAIIWFDGSNKYYADSVKGRFTISRDNSKNTLFLQMSSLRAEDTAVYYCAREWLQFRYYYGMDVWGQGTTVTVSS VL: DIQMTQSPSSLSASVGDRVTITCRASQGIRKDLGWYQQKPGKAPKRLIYAASSLQSGVPSRFSGSGSGTEFTLTISSLQPEDFATYVCLQHYRYPFTFGPGTKVDFK
Result: 9460

Data origin, for the record: patent US20190248902A1
